Protocol: Solubility of the compound in phosphate buffered saline at pH 7.4 containing 1% DMSO after 18 hrs by UPLC-MS method
Assay type: physicochemical
Test Settings: phosphate buffered saline with 1% DMSO
Listed here: items and their measured solubility kinetic at 18 h.

>  <Cpd Smiles>
C[C@@H]1[C@H](CN(C)Cc2ccc(Oc3ccccc3)cc2)Oc2c(NC(=O)c3ccncc3)cccc2C(=O)N1[C@@H](C)CO

>  <solubility kinetic at 18 h / µM>
87

$$$$
>  <Cpd Smiles>
C[C@@H](CO)N1C(=O)c2cccc(NC(=O)c3ccncc3)c2O[C@H](CN(C)Cc2ccc(Oc3ccccc3)cc2)[C@@H]1C

>  <solubility kinetic at 18 h / µM>
93

$$$$
>  <Cpd Smiles>
C[C@@H](CO)N1C(=O)c2cccc(NC(=O)c3ccncc3)c2O[C@@H](CN(C)Cc2ccc(Oc3ccccc3)cc2)[C@@H]1C

>  <solubility kinetic at 18 h / µM>
1

$$$$
>  <Cpd Smiles>
C[C@H](CO)N1C(=O)c2cccc(NC(=O)c3ccncc3)c2O[C@@H](CN(C)Cc2ccc(Oc3ccccc3)cc2)[C@H]1C

>  <solubility kinetic at 18 h / µM>
86

$$$$
>  <Cpd Smiles>
C[C@H](CO)N1C(=O)c2cccc(NC(=O)c3ccncc3)c2O[C@@H](CN(C)Cc2ccc(Oc3ccccc3)cc2)[C@@H]1C

>  <solubility kinetic at 18 h / µM>
2

$$$$
>  <Cpd Smiles>
C[C@H](CO)N1C(=O)c2cccc(NC(=O)c3ccncc3)c2O[C@H](CN(C)Cc2ccc(Oc3ccccc3)cc2)[C@H]1C

>  <solubility kinetic at 18 h / µM>
1

$$$$
>  <Cpd Smiles>
C[C@@H]1[C@@H](CN(C)Cc2ccc(Oc3ccccc3)cc2)Oc2c(NC(=O)c3ccncc3)cccc2C(=O)N1[C@@H](C)CO

>  <solubility kinetic at 18 h / µM>
1

$$$$
>  <Cpd Smiles>
C[C@H](CO)N1C(=O)c2cccc(NC(=O)c3ccncc3)c2O[C@H](CN(C)Cc2ccc(Oc3ccccc3)cc2)[C@@H]1C

>  <solubility kinetic at 18 h / µM>
98

$$$$

====

Listed here: items and their measured pKa.
Protocol: Dissociation constant, pKa of the compound for N15, 3'-amine group by dip probe absorption spectroscopy
Assay type: physicochemical
Readout: pKa

>  <Cpd Smiles>
C[C@H](CO)N1C(=O)c2cccc(NC(=O)c3ccncc3)c2O[C@H](CN(C)Cc2ccc(Oc3ccccc3)cc2)[C@H]1C

>  <Measured>
6.08

$$$$
>  <Cpd Smiles>
C[C@H](CO)N1C(=O)c2cccc(NC(=O)c3ccncc3)c2O[C@@H](CN(C)Cc2ccc(Oc3ccccc3)cc2)[C@@H]1C

>  <Measured>
6.14

$$$$
>  <Cpd Smiles>
C[C@@H](CO)N1C(=O)c2cccc(NC(=O)c3ccncc3)c2O[C@H](CN(C)Cc2ccc(Oc3ccccc3)cc2)[C@@H]1C

>  <Measured>
7.08

$$$$
>  <Cpd Smiles>
C[C@H](CO)N1C(=O)c2cccc(NC(=O)c3ccncc3)c2O[C@@H](CN(C)Cc2ccc(Oc3ccccc3)cc2)[C@H]1C

>  <Measured>
7.07

$$$$

====

Listed here: items and their measured pKa.
Protocol: Dissociation constant, pKa of the compound for N15, 3'-amine group by dip probe absorption spectroscopy
Assay type: physicochemical

>  <Cpd Smiles>
C[C@@H]1[C@H](CN(C)Cc2ccc(Oc3ccccc3)cc2)Oc2c(NC(=O)c3ccncc3)cccc2C(=O)N1[C@@H](C)CO

>  <pKa>
7.16

$$$$
>  <Cpd Smiles>
C[C@@H]1[C@@H](CN(C)Cc2ccc(Oc3ccccc3)cc2)Oc2c(NC(=O)c3ccncc3)cccc2C(=O)N1[C@@H](C)CO

>  <pKa>
6.18

$$$$
>  <Cpd Smiles>
C[C@H](CO)N1C(=O)c2cccc(NC(=O)c3ccncc3)c2O[C@H](CN(C)Cc2ccc(Oc3ccccc3)cc2)[C@@H]1C

>  <pKa>
7.16

$$$$
>  <Cpd Smiles>
C[C@@H](CO)N1C(=O)c2cccc(NC(=O)c3ccncc3)c2O[C@@H](CN(C)Cc2ccc(Oc3ccccc3)cc2)[C@@H]1C

>  <pKa>
6.08

$$$$
